Give self-cleavage for every item shown.
B1: Hairpin Ribozyme (parent)
chain: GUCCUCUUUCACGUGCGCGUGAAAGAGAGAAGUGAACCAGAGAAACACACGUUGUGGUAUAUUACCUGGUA

Variants of: B1
assay-info: self-cleavage, relative activity (ratio to wild type); higher = more cleavage; co-transcriptional
One number for each entry.

Solved entries:
G51U C66G; 0.2
U2A U20G; 0.201

Now for another entry.
Please fill in: self-cleavage reported for C16A G27U = 0.202
